molecular target: Peroxisome proliferator-activated receptor gamma (Homo sapiens); assay: Inhibition of human peroxisome proliferator activated receptor gamma binding
Sequence (P37231 whole entry): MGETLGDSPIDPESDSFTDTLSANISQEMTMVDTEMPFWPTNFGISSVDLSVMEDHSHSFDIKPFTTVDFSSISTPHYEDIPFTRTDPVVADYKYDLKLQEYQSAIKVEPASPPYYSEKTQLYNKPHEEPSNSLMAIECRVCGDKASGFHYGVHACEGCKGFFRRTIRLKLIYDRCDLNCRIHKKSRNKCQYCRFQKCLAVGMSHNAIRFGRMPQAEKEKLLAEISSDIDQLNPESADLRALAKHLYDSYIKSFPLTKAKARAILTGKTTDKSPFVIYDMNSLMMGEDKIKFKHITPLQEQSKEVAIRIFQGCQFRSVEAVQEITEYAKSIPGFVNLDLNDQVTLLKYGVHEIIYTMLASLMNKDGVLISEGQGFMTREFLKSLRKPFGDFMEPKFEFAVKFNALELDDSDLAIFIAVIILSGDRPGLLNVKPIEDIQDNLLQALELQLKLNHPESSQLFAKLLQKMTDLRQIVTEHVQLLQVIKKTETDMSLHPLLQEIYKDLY
Measured IC50 by item
property_name: IC50 (nM)

INSERT INTO assay_data (molecule, assayed_system, property_name, relation, reported_result) VALUES
  ('CCCc1ccc(Oc2c(C)n(-c3noc4cc(Cl)ccc34)c3ccc(OC(F)(F)F)cc23)cc1O[C@@H](C)C(=O)O', 'Peroxisome proliferator-activated receptor gamma (Homo sapiens)', 'IC50', '=', 20),
  ('Cc1c(Oc2cc(Cl)cc(O[C@@H](C)C(=O)O)c2)c2cc(OC(F)(F)F)ccc2n1-c1noc2cc(Cl)ccc12', 'Peroxisome proliferator-activated receptor gamma (Homo sapiens)', 'IC50', '=', 109),
  ('CN1C(=O)SC(Cc2ccc(OCCN(C)c3ccccn3)cc2)C1=O (stereo not drawn)', 'Peroxisome proliferator-activated receptor gamma (Homo sapiens)', 'IC50', '>', 50000),
  ('Cc1c(Oc2ccc(Cl)c(O[C@@H](C)C(=O)O)c2)c2cc(OC(F)(F)F)ccc2n1-c1noc2cc(Cl)ccc12', 'Peroxisome proliferator-activated receptor gamma (Homo sapiens)', 'IC50', '=', 1),
  ('Cc1c(Oc2cccc(O[C@@H](C)C(=O)O)c2)c2cc(OC(F)(F)F)ccc2n1-c1noc2cc(Cl)ccc12', 'Peroxisome proliferator-activated receptor gamma (Homo sapiens)', 'IC50', '=', 33),
  ('COc1ccc(C(=O)n2c(C)c(Cc3cccc(OCC#N)c3)c3cc(OC(F)(F)F)ccc32)cc1', 'Peroxisome proliferator-activated receptor gamma (Homo sapiens)', 'IC50', '=', 42),
  ('COc1ccc(-n2c(C)c(Cc3cccc(O[C@@H](C)C(=O)O)c3)c3cc(OC(F)(F)F)ccc32)cc1', 'Peroxisome proliferator-activated receptor gamma (Homo sapiens)', 'IC50', '=', 1),
  ('COc1ccc2nc(-n3c(C)c(Cc4cccc(O[C@@H](C)C(=O)O)c4)c4cc(OC(F)(F)F)ccc43)ccc2c1', 'Peroxisome proliferator-activated receptor gamma (Homo sapiens)', 'IC50', '=', 135);
